Assay: NCI Yeast Anticancer Drug Screen. Data for the mlh1 rad18 strain (AID 175)
Details: S. cerevisiae mlh1 rad18 strain growth inhibition; at 50.0 µM; active compounds read high
The panel holds about 79,000 compounds, 15% with a hit somewhere; the sample as a whole holds those more often.
VALUE_TYPE: growth inhibition (%)

INSERT INTO assay_data (compound, reported) VALUES
  ('c1ccc(CN2CCc3ncnc(Nc4ccccc4)c3C2)cc1', -5.05),
  ('CCC(S)(C(N)=O)c1ccccc1 (stereo not given)', -18.2),
  ('Cc1ccc(S(=O)(=O)N2CC(CCl)N(S(=O)(=O)c3ccc(C)cc3)CC2CCl)cc1 (stereo not given)', 20.9),
  ('COc1cc2c(cc1OC)C1(CCCl)C3CC4C(=CCOC5CC(=O)N2C1C54)CN3C(=O)Cc1ccccc1 (stereo not given)', 23.6),
  ('COc1ccc(C2C(C#N)=C(N)NC(=O)C2C(N)=O)cc1 (stereo not given)', -19.4),
  ('CC1=CC(N)C2CC1C2(C)C (stereo not given)', -1.65),
  ('Cc1cc(C)nc(NS(=O)(=O)c2ccc(Nc3c4ccc(Cl)cc4nc4c(C(=O)NCCN(C)C)cccc34)cc2)n1', 6.95),
  ('Cc1cc(N)c(N=Cc2ccccc2[N+](=O)[O-])cc1C', 20.9),
  ('CCOC(=O)CNc1nc(Cl)nc(NCC(=O)OCC)n1', 1.4),
  ('COc1cc(C)c(N)cc1N', 15.7),
  ('CN(Cc1ccccc1)C(=O)c1ccccc1C(=O)O', 13.2),
  ('CCCCCCC(C)N1C(=O)c2ccccc2C1=O (stereo not given)', -8.4),
  ('CC(C)n1c(=S)[nH]c2c(=O)[nH]c(=O)[nH]c21', -17.4),
  ('NNc1cccc(Cl)n1', 8.05),
  ('c1ccc2c(c1)Nc1nsnc1N2', 2.25);

====

Test: NCI Yeast Anticancer Drug Screen. Data for the bub3 strain (AID 167)
Details: S. cerevisiae bub3 mutant strain, at 50.0 µM, active compounds read high
The panel holds about 79,000 compounds, 15% with a hit somewhere; the sample as a whole holds those more often. Where a SMILES comes first, the peptide text is derived from it.
VALUE_TYPE: growth inhibition (%)

INSERT INTO results (compound, value_type, unit_annotation, reported) VALUES
  ('Cc1ccc(NC(=O)CCCC(=O)CC(=O)c2ccc(Br)cc2)cc1', 'growth inhibition', '%', -12.2),
  ('COC(=O)CCC(=O)CC(=O)C1=NS(=O)(=O)c2nc(S(N)(=O)=O)c(Cl)cc2N1', 'growth inhibition', '%', -16.1),
  ('O=C(O)C12C3CCC(C3)C1(C(=O)O)C1CCC2C1 (configuration not stated)', 'growth inhibition', '%', -0.65),
  ('CC(C)OP(=O)(OC(C)C)C1C(P(=O)(OC(C)C)OC(C)C)C(F)(F)C1(F)F (configuration not stated)', 'growth inhibition', '%', -2),
  ('Nc1cc(C(F)(F)F)ccc1F', 'growth inhibition', '%', 6.65),
  ('CC(C)c1cccc(C(C)C)c1N1C(=O)C(=O)C(c2nc3ccccc3s2)C(=O)C1=O', 'growth inhibition', '%', 1.55),
  ('C/C=C/C[P+](Cc1ccccc1)(c1ccccc1)c1ccccc1', 'growth inhibition', '%', 24.6),
  ('Cc1nc2ccc(S(=O)(=O)Nc3ccccn3)cc2c(=O)n1NS(=O)(=O)c1ccccn1', 'growth inhibition', '%', -14.2),
  ('CNCc1ccccc1', 'growth inhibition', '%', -19.8),
  ('Cc1ccc(S(=O)(=O)N2CN(S(=O)(=O)c3ccc(C)cc3)CN(S(=O)(=O)c3ccc(C)cc3)C2)cc1', 'growth inhibition', '%', -40.3),
  ('CC(C)(c1ccc(O)c([N+](=O)[O-])c1)c1ccc(O)c([N+](=O)[O-])c1', 'growth inhibition', '%', -2.9),
  ('N#CC(C#N)=C(C#N)Nc1ccc(F)cc1', 'growth inhibition', '%', -13.4),
  ('Nc1nc(N)c2ncn(Cc3c(Cl)cccc3Cl)c2n1', 'growth inhibition', '%', 4.15),
  ('O=[N+]([O-])c1ccc(OP(=O)(O)O)cc1', 'growth inhibition', '%', 8.95),
  ('COc1cc2ccccc2oc1=O', 'growth inhibition', '%', 5.2),
  ('CC(=O)Oc1c(C)cc2c(c1C)C(C)CN2C(C)=O (configuration not stated)', 'growth inhibition', '%', -22.4),
  ('Cc1cc2c(c(N)c1C)C(=O)c1ccccc1C2=O', 'growth inhibition', '%', 26.2),
  ('O=CNc1ccccc1Cc1ccccc1', 'growth inhibition', '%', 4.25),
  ('NC(=O)CCN(CCC(N)=O)CCC(N)=O', 'growth inhibition', '%', -4.15),
  ('CC(=O)OCc1cc(OC(C)=O)cnc1COC(C)=O', 'growth inhibition', '%', -7.85),
  ('CCCCCCCCCCCCCCCCN (tested in a mixture with another compound)', 'growth inhibition', '%', 26.5),
  ('CCC(CO)Nc1nncc2ccccc12 (configuration not stated)', 'growth inhibition', '%', -10.6),
  ('CCCCCCCCCc1cc[n+](C2=C([O-])C3=C(C(=O)C2=O)C2c4ccccc4C3c3ccccc32)cc1', 'growth inhibition', '%', 53.9),
  ('CCCC1CCN(c2ccc([N+](=O)[O-])cc2[N+](=O)[O-])CC1', 'growth inhibition', '%', 38.2),
  ('CCCCn1c(=S)sc2ccccc21', 'growth inhibition', '%', 21.7),
  ('CC1C=CC(C)c2c(-c3ccccc3)oc(-c3ccccc3)c21 (configuration not stated)', 'growth inhibition', '%', -0.4),
  ('O=C(OCC1OC(n2ccc(=O)[nH]c2=O)C(F)C1OC(=O)c1ccccc1)c1ccccc1 (configuration not stated)', 'growth inhibition', '%', 7.15),
  ('CCN(CC)c1ccc(/C=C(\C)c2nc3ccc(Cl)cc3[nH]2)cc1', 'growth inhibition', '%', -5.95),
  ('CC1=Nc2cc(C)c(C)cc2N2C1=CC1=C(C(=O)c3cc4ccccc4cc3C1=O)C2C (configuration not stated)', 'growth inhibition', '%', -3.85),
  ('CC(C)CC(N)C(=O)NC(C)C(=O)NC(CC(C)C)C(=O)O (stereo not drawn) (H-Leu-Ala-Leu-OH; configuration not given here)', 'growth inhibition', '%', 0.5),
  ('O=C(O)c1ccc(Nc2nc3ccccc3nc2C(=O)O)cc1', 'growth inhibition', '%', -13.2),
  ('CC(C)N1CCN(c2ccncc2S(=O)(=O)N2CCCCC2)CC1', 'growth inhibition', '%', -21.9);

====

Assay: NCI Yeast Anticancer Drug Screen. Data for the sgs1 mgt1 strain (AID 161);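 further: 0% = growth of cultures given vehicle only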
Conditions: S. cerevisiae sgs1 mgt1 strain, at 50.0 µM, active compounds read high
About 79,000 compounds went through this panel and 15% of them were active in at least one assay; those are over-represented in the sample as a whole. Activity calls are given as the source filed them. Cut-off read from the data, not from the text of the source: active = growth inhibition above about 70%; inactive = the rest.
Each entry below carries its recorded growth inhibition.
VALUE_TYPE: growth inhibition

INSERT INTO assay_data (compound, value_type, reported) VALUES
  ('COCC1(c2ccccc2)NC(=O)N(C)C1=O (stereo not drawn)', 'growth inhibition', '-1.35% (inactive)'),
  ('CN(C(=N)N)c1ccc(C(=O)Oc2ccc([N+](=O)[O-])cc2)cc1', 'growth inhibition', '29.6% (inactive)'),
  ('CCCCCOS(=O)(=O)O', 'growth inhibition', '-0.6% (inactive)'),
  ('COc1ccc(N(C)C(=S)c2ccccc2)cc1', 'growth inhibition', '-15.4% (inactive)'),
  ('CCOC(=O)c1cc(C=O)oc1C', 'growth inhibition', '-8.1% (inactive)'),
  ('COc1ccc2cccc(C(=O)O)c2c1', 'growth inhibition', '-6.5% (inactive)'),
  ('CCCCOC(=O)c1cccc2c1-c1ccccc1C2=O', 'growth inhibition', '-2% (inactive)'),
  ('CC(C)CC1N=C(OCc2ccccc2)OC1=O (stereo not drawn)', 'growth inhibition', '-20.4% (inactive)'),
  ('CNC(=O)OCc1c(COC(=O)NC)c(-c2cccs2)n2c1CCC2', 'growth inhibition', '23.1% (inactive)'),
  ('O=C1Nc2ccccc2/C1=N/N1C(=O)CSC1=S', 'growth inhibition', '32.5% (inactive)'),
  ('Cc1c(C)c(C(Cl)(Cl)Cl)c(C)c(C)c1Br', 'growth inhibition', '-0.75% (inactive)'),
  ('Cc1ccc([N+](=O)[O-])cc1N1CCNC1=O', 'growth inhibition', '-12.2% (inactive)'),
  ('Oc1ccc(C2SCc3nc4ccccc4n32)cc1 (stereo not drawn)', 'growth inhibition', '-35.9% (inactive)');

====

Each entry below carries its recorded growth inhibition.
Test: NCI Yeast Anticancer Drug Screen. Data for the mec2-1 strain (AID 157)
Settings: S. cerevisiae mec2-1 strain, at 50.0 µM, active compounds read high
Compounds without any hit were thinned out: in the full panel of roughly 79,000, 15% have a hit.
VALUE_TYPE: growth inhibition (%)

INSERT INTO results (compound, reported) VALUES
  ('CCCCCCCCN(c1ccc(C(=O)NC(CCC(=O)OCC)C(=O)OCC)cc1)S(=O)(=O)c1ccc(C)cc1 (stereo not drawn)', -4.5),
  ('CCOc1ccc(NC(=O)c2ccccc2O)cc1', 14),
  ('CCOC(=O)CC(C(=O)OCC)C(C(=O)OCC)C(=O)OCC (stereo not drawn)', -4.1),
  ('CCN(CC)CCSc1nnc(-c2cc(OC)c(OC)c(OC)c2)o1', 1.1),
  ('O=C(NC(=O)C(Cl)Cl)OC1c2cc(Cl)ccc2-c2c(Cl)cc(Cl)cc21 (stereo not drawn)', 99.5),
  ('NC(=O)OCc1c(-c2ccccc2)nn(-c2ccccc2)c1COC(N)=O', -31),
  ('O=C(O)CCCC1(CCCC(=O)O)OCCO1', -4.45),
  ('c1ccc(OCCSCCCCCCCCCCSCCOc2ccccc2)cc1', -11.8),
  ('O=C(/C=C(/CC(O)(c1ccccc1)c1ccccc1)Nc1ccccc1)c1ccccc1', -2.7),
  ('OC(CC1CCCCN1)c1ccc2c(c1)oc1ccccc12 (stereo not drawn)', 56.9),
  ('O=C(O)C1CC2(CCC1c1ccccc1)SCCS2 (stereo not drawn)', 1.15),
  ('CN(C)C1Cc2ccccc2C1OC(=O)c1ccccc1 (stereo not drawn)', 20.2),
  ('CCOc1ccccc1C(=O)O', 6),
  ('CCOC(=O)CNC(=O)CNC(=O)CNS(=O)(=O)c1ccc(C)cc1', 15.2),
  ('C1CC2CC1C13OC1C1(CC1)C1OC213 (stereo not drawn)', 11.6),
  ('COc1ccc(/C(=N/N)c2ccccc2)cc1', -40.5),
  ('O=C(N[C@H](CO)[C@H](O)c1ccc([N+](=O)[O-])cc1)C(Cl)Cl', -4.05),
  ('CC(C)Oc1cc2c(cc1O)CC[C@@H]1[C@@H]2CC[C@]2(C)[C@@H](O)CC[C@@H]12', 8.2),
  ('C[n+]1ccc(CCC(=O)Nc2ccccc2)cc1', 24.3),
  ('O=C1NN=C(C2CCCCC2)C12CCCCC2', -2.85),
  ('O=C1C(Cl)=C(N(C(=O)c2ccccc2)C(=O)c2ccccc2)C(=O)c2ccccc21', -3.7),
  ('CCC(=O)[C@@]1(OC(C)=O)CC[C@H]2[C@@H]3CCC4=CC(=O)CC[C@]4(C)[C@H]3CC[C@@]21C', 17.5),
  ('CC(C)N(C(=O)C12C3C4C5(C(=O)O)C(C1C35I)C42C(=O)O)C(C)C (stereo not drawn)', 11.1),
  ('CC(=O)Oc1c(C)cc2c(c1C)C(C)CN2C(C)=O (stereo not drawn)', -33.8),
  ('CCN(CC)CCNc1ccc2ncn3c4ccc(OC)cc4c(=O)c1c23', -1.9),
  ('CC(=O)CC(=O)CCC(=O)O', -20.2),
  ('Nc1cc(Cl)cc2cc(Cl)cnc12', 54.8),
  ('Nn1c(C23CC4CC(CC(C4)C2)C3)n[nH]c1=S', 5.65),
  ('Cc1cc(=O)[nH]c(=S)n1-c1nc2ccccc2o1', 7.65),
  ('O=C(O)C(CCc1cccc(Cl)c1)C(=O)O', -13.8),
  ('O=[N+]([O-])c1ccc(-c2cccc3ccccc23)c([N+](=O)[O-])c1', 34.9),
  ('CCN(CC)CCOc1ccc(OC)cc1', -0.6),
  ('COc1ccc(OC)c(/C=C/c2ccccc2)c1', -29.1);
